Origin of the recorded values: the supplement of paper PMC7156485

system: HCC1569; assay: H1.0 immunofluorescence intensity relative to DMSO (% of DMSO); higher = stronger H1.0 induction, active = 140 or more; settings: concentration: 10 µM; 24 h;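 note: TDF is a line of transformed human dermal fibroblasts of mesenchymal origin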
For each entry below, report its H1.0 immunofluorescence intensity value.
One number for each entry.

• CC(C)Nc1cccnc1N1CCN(C(=O)c2cc3cc(NS(C)(=O)=O)ccc3[nH]2)CC1.CS(=O)(=O)O [Delavirdine mesylate] = 110
• Brc1c(NC2=NCCN2)ccc2nccnc12 = 96.8
• O=C(c1ccc2c(c1)OCCO2)N1CCCCC1 = 107
• COc1ccc(-c2coc3cc(O)cc(O)c3c2=O)cc1 = 90.6
• CC(C)=CCC[C@@H](C)[C@H]1CC[C@H]2[C@@H]3CC=C4C[C@@H](O)CC[C@]4(C)[C@H]3CC[C@]12C = 101
• COC(=O)[C@H](Cc1ccc([N+](=O)[O-])cc1)NC(=O)c1cccc2ccccc12 [methyl (2S)-2-(1-naphthoylamino)-3-(4-nitrophenyl)propanoate] = 101

As a next step, examine the compound that follows.
**Query** Any idea what H1.0 immunofluorescence intensity was measured for `Cc1cc(N)c2ccccc2[n+]1CCCCCCCCCCCCCC[n+]1c(C)cc(N)c2ccccc21.[I-].[I-]` ?
**Result** 100
